Catalogue of compounds with associated inhibition at 10 µM
- targetOfAssay: mouse GnRH receptor (Mus musculus, UniProt Q01776)
- Construct: expressed in transfected cells; host or cells: 293 cells
- protocolText: Radioligand binding, 125I-GnRH-A, 293 cells expressing mouse GnRH receptors
- conditionInfo: 10 uM; read-out: % Inhib. @ 10 uM mGnRH
Your answer should be a plain number; it is taken to be in %.

Record CCN(CC)CCCNC(=O)c1ccc(Cc2cc3c(cc2C)C(C)(C)CCC3(C)C)o1 [drawing 1244] has mouse GnRH receptor (Mus musculus, UniProt Q01776) inhibition at 10 µM equal to 100

Record Cc1cc2c(cc1Cc1ccc(C(=O)NC(C)(CO)CO)o1)C(C)(C)CCC2(C)C [drawing 1444] has mouse GnRH receptor (Mus musculus, UniProt Q01776) inhibition at 10 µM equal to 55

Record Cc1cc2c(cc1Cc1ccc(C(=O)N3CCCC4CCCCC43)o1)C(C)(C)CCC2(C)C (centres unmarked) has mouse GnRH receptor (Mus musculus, UniProt Q01776) inhibition at 10 µM equal to 94

Record Cc1cc2c(cc1Cc1ccc(C(=O)N3CCC(N4CCCCC4)CC3)o1)C(C)(C)CCC2(C)C has mouse GnRH receptor (Mus musculus, UniProt Q01776) inhibition at 10 µM equal to 92

Record Cc1cc2c(cc1Cc1ccc(C(=O)NCCSCCO)o1)C(C)(C)CCC2(C)C [drawing 1498] has mouse GnRH receptor (Mus musculus, UniProt Q01776) inhibition at 10 µM equal to 101

----------
- targetOfAssay: mouse GnRH receptor (Mus musculus, UniProt Q01776)
- Construct: expressed in transfected cells; host or cells: 293 cells
- protocolText: Radioligand binding, 125I-GnRH-A, 293 cells expressing mouse GnRH receptors
- conditionInfo: 1 h, substrate remaining; 10 uM compound; closer to zero = closer to 100% inhibition; read-out: S%R 10 uM mGnRHR
measurementType: remaining activity at 10 µM (%)
Your answer should be a plain number; it is taken to be in %.

{"compound": "Cc1cc2c(cc1Cc1ccc(C(=O)NCCNc3nccc(NCC4CCCO4)n3)o1)C(C)(C)CCC2(C)C (stereo not shown)", "targetOfAssay": "mouse GnRH receptor (Mus musculus, UniProt Q01776)", "remaining activity at 10 µM (%)": 2}
{"compound": "Cc1cc2c(cc1Cc1ccc(C(=O)NC3CCN(Cc4ccccc4)C3)o1)C(C)(C)CCC2(C)C (stereo not shown)", "targetOfAssay": "mouse GnRH receptor (Mus musculus, UniProt Q01776)", "remaining activity at 10 µM (%)": -1}
{"compound": "Cc1cc2c(cc1Cc1ccc(C(=O)N(C)CCCN(C)C)o1)C(C)(C)CCC2(C)C", "targetOfAssay": "mouse GnRH receptor (Mus musculus, UniProt Q01776)", "remaining activity at 10 µM (%)": 8}

Pending compound:
Value of remaining activity at 10 µM reported for the compound Cc1cc2c(cc1Cc1ccc(C(=O)N3CCCC(C)(C)C3)o1)C(C)(C)CCC2(C)C is 3

----------
- targetOfAssay: mouse GnRH receptor (Mus musculus, UniProt Q01776)
- Construct: expressed in transfected cells; host or cells: 293 cells
- Sequence (Q01776 1-327): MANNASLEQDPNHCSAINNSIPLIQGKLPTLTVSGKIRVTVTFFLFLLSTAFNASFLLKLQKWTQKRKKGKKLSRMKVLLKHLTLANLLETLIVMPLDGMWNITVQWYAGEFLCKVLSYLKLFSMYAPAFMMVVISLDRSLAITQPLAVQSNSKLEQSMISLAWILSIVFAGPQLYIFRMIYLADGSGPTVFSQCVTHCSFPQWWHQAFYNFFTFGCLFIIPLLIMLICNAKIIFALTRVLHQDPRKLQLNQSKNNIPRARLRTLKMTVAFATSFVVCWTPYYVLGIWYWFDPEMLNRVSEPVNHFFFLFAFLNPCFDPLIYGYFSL
- protocolText: Radioligand binding, 125I-GnRH-A, 293 cells expressing mouse GnRH receptors
- conditionInfo: 1 h, substrate remaining; 10 uM compound; closer to zero = closer to 100% inhibition; read-out: S%R 10 uM mGnRHR
Catalogue of molecules with associated remaining activity at 10 µM
Your answer should be a plain number; it is taken to be in %.

{"molecule": "Cc1cc2c(cc1Cc1ccc(C(=O)NCc3nc4ccccc4[nH]3)o1)C(C)(C)CCC2(C)C [Compound 500]", "targetOfAssay": "mouse GnRH receptor (Mus musculus, UniProt Q01776)", "unitOfMeasure": "%", "endpointValue": -4}

Value of remaining activity at 10 µM reported for the molecule Cc1cc2c(cc1Cc1ccc(C(=O)NCCc3ccc(Cl)cc3Cl)o1)C(C)(C)CCC2(C)C [Compound 524] is 35

Value of remaining activity at 10 µM reported for the molecule CCOC(=O)N1CCN(C(=O)c2ccc(Cc3cc4c(cc3C)C(C)(C)CCC4(C)C)o2)CC1 [Compound 628] is 35

Value of remaining activity at 10 µM reported for the molecule CCC(CC)NC(=O)c1ccc(Cc2cc3c(cc2C)C(C)(C)CCC3(C)C)o1 [Compound 666] is 24

Value of remaining activity at 10 µM reported for the molecule Cc1cc2c(cc1Cc1ccc(C(=O)NCCN3CCCC3)o1)C(C)(C)CCC2(C)C [Compound 515] is 11

Value of remaining activity at 10 µM reported for the molecule Cc1cc2c(cc1Cc1ccc(C(=O)NC3CCCCC3Nc3ccnc(NCC4CCCO4)n3)o1)C(C)(C)CCC2(C)C (centres unmarked) [Compound 481] is 5

Value of remaining activity at 10 µM reported for the molecule CCN(CC)CCN(C)C(=O)c1ccc(Cc2cc3c(cc2C)C(C)(C)CCC3(C)C)o1 [Compound 532] is 12

Value of remaining activity at 10 µM reported for the molecule Cc1cc2c(cc1Cc1ccc(C(=O)N3C[C@H]4CCCC[C@H]4CC3C(=O)NC(C)(C)C)o1)C(C)(C)CCC2(C)C (some centres unmarked) [Compound 591] is 48

Value of remaining activity at 10 µM reported for the molecule Cc1cc2c(cc1Cc1ccc(C(=O)NCC3Nc4ccccc4N3)o1)C(C)(C)CCC2(C)C [Compound 529] is -3

Value of remaining activity at 10 µM reported for the molecule Cc1cc2c(cc1Cc1ccc(C(=O)N(CCc3ccccc3)Cc3ccoc3)o1)C(C)(C)CCC2(C)C [Compound 667] is 39

Value of remaining activity at 10 µM reported for the molecule Cc1cc2c(cc1Cc1ccc(C(=O)NCCc3ccc(N)cc3)o1)C(C)(C)CCC2(C)C [Compound 503] is -3
